All values here come from patent US20250230226A1.

tested on: LL/2 lung cancer tumor endothelial cells; test: Lung LL2 ex vivo model of tumor angiogenesis; type: cell-based, mouse; conditions: Mus musculus, Endothelial cell, 48 h, read-out: Cell death
property: cytotoxicity at 20 µM (%)
Kindly answer with a numeric value in %, unit omitted.

molecule	tested-system	readout-number
CCCCOc1ccc(S(=O)(=O)c2cnc3ccc(OC(F)(F)F)cc3c2-n2cncn2)cc1 [Compound 93]	LL/2 lung cancer tumor endothelial cells	100
CCCCCCCOc1ccc(S(=O)(=O)c2cnc3ccc(SC)cc3c2N2CCN(C3CCN(C)CC3)CC2)cc1 [Compound 273]	LL/2 lung cancer tumor endothelial cells	60
COc1ccc(S(=O)(=O)c2cnc3ccc(OC(F)(F)F)cc3c2-n2cncn2)cc1OC [Compound 89]	LL/2 lung cancer tumor endothelial cells	100
CCc1ccc(S(=O)(=O)c2cnc3ccc(OC(F)(F)F)cc3c2N2CCC(N3CCC(O)CC3)CC2)cc1 [Compound 102]	LL/2 lung cancer tumor endothelial cells	20

Please turn your attention to the following entry.
Form field: reported cytotoxicity at 20 µM of CCCCCCCCCCCCCCOc1ccc(S(=O)(=O)c2cnc3ccc([S+](C)[O-])cc3c2N2CCC(N3CCN(CCO)CC3)CC2)cc1 (centres unmarked) [Compound 339]
50

* * *

test system: LL/2 lung cancer tumor endothelial cells; test: Lung LL2 ex vivo model of tumor angiogenesis; type: cell-based, mouse; conditions: Mus musculus, Endothelial cell, 48 h, read-out: Cell death
Measured cytotoxicity at 20 µM by item
Mention the unit after the number when you answer.

Take a look at these entries with their results.
structure-smiles-string	result
O=S(=O)(c1ccc(OC(F)(F)F)cc1)c1cnc2ccc(OC(F)(F)F)cc2c1-n1cncn1	80%
CCc1ccc(S(=O)(=O)c2cnc3ccc(OC(F)(F)F)cc3c2-n2cnc(C)c2)cc1	100%

Form field: reported cytotoxicity at 20 µM of CCc1ccc(S(=O)(=O)c2cnc3ccc(OC(F)(F)F)cc3c2-n2cnnn2)cc1
10%

* * *

tested on: LL/2 lung cancer tumor endothelial cells; experiment: Lung LL2 ex vivo model of tumor angiogenesis; assay type: cell-based, mouse; details: Mus musculus, Endothelial cell, 48 h, read-out: Cell death
Measured cytotoxicity at 40 µM by item
Kindly answer with a numeric value in %, unit omitted.

Take a look at these entries with their results.
compound	cytotoxicity at 40 µM / %
CCCCOc1ccc(S(=O)(=O)c2cnc3ccc(C(=O)OCC)cc3c2N2CCCN(C)CC2)cc1	100
CCCCOc1ccc(S(=O)(=O)c2cnc3ccc(C(=O)OCC)cc3c2N2CCC(N3CC[S+]([O-])CC3)CC2)cc1	20

Form field: reported cytotoxicity at 40 µM of CCc1ccc(S(=O)(=O)c2cnc3ccc(OC(F)(F)F)cc3c2N2CCN(c3ccc(C#N)cc3)CC2)cc1
10

Form field: reported cytotoxicity at 40 µM of CCCCOc1ccc(S(=O)(=O)c2cnc3ccc(C(=O)NC4C(O)O[C@H](CO)[C@@H](O)[C@@H]4O)cc3c2N2CCCN(C)CC2)cc1 (stereo partly shown)
30

Form field: reported cytotoxicity at 40 µM of CNC(=O)c1ccc2ncc(S(=O)(=O)c3ccc(OC)cc3)c(N3CCC(N4CCCCC4)CC3)c2c1
40

Form field: reported cytotoxicity at 40 µM of COc1ccc(S(=O)(=O)c2cnc3ccc(OC(F)(F)F)cc3c2N2CCC(O)CC2)cc1OC
50

Form field: reported cytotoxicity at 40 µM of CCOC(=O)c1ccc2ncc(S(=O)(=O)c3ccc(CC)cc3)c(NN3CCN(C)CC3)c2c1
100
